B1: Protein piccolo, residues 1058 to 1114; numbered along this chain, Q9Y6V0 (parent)
chain: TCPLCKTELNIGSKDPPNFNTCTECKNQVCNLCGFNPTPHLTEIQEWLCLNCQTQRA

Variants of: B1
ASSAY NOTES: abundance fitness (aPCA) (normalised: wild type 0, dead -1); higher = more abundant; growth selection in yeast, the domain comes from the species named
MEASUREMENT SETUP: Homo sapiens
Each record here notes measured abundance fitness.
Reply with the value as a number alone.

Reference set (4 entries):
# VARIANT IDENTIFIER, abundance fitness
measured = [
    ("F35D", 0.218),
    ("P17W", -0.199),
    ("K14N", -0.016),
    ("T1G", -0.205),
]

Form: variant = P16S ; abundance fitness = -0.057

Form: variant = N18H ; abundance fitness = -0.1

Form: variant = C5D ; abundance fitness = -0.606

Form: variant = T54V ; abundance fitness = -0.198

Form: variant = N36W ; abundance fitness = -0.08

Form: variant = C49A ; abundance fitness = -0.66

Form: variant = H40Q ; abundance fitness = -0.065

Form: variant = Q28F ; abundance fitness = -0.185

Form: variant = C25Q ; abundance fitness = -0.644

Form: variant = C52P ; abundance fitness = -1.2

Form: variant = N10T ; abundance fitness = 0.062

Form: variant = T7Y ; abundance fitness = -0.34

Form: variant = L4H ; abundance fitness = 0.054

Form: variant = C25S ; abundance fitness = -0.671

Form: variant = P37G ; abundance fitness = 0.039

Form: variant = F19I ; abundance fitness = 0.178

Form: variant = T54L ; abundance fitness = -0.531

Form: variant = Q53E ; abundance fitness = -0.074

Form: variant = C22E ; abundance fitness = -0.54

Form: variant = C30W ; abundance fitness = -1

Form: variant = L4I ; abundance fitness = -0.048

Form: variant = K26C ; abundance fitness = -0.026

Form: variant = D15R ; abundance fitness = -0.257

Form: variant = T23F ; abundance fitness = 0.288
